# ASSAYED_SYSTEM: T1, PACAP-R3 (human, UniProt P41587 24-438)
# T1 sequence (looked up): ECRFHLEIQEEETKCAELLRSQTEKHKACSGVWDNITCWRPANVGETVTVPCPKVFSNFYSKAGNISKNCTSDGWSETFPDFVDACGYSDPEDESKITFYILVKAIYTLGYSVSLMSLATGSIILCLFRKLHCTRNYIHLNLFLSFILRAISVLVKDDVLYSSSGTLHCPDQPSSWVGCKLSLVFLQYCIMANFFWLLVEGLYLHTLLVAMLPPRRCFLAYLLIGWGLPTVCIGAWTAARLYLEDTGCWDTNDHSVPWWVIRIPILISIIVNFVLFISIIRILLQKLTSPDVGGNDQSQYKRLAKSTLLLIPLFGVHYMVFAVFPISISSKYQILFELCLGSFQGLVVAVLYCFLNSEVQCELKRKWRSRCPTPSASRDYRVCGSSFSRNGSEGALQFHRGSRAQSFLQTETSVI
# ASSAY: cell-based or functional assay
EXPERIMENTAL_READOUT: R3 Selectivity (ratio)
Numbers only, in ratio.

Sample records with R3 Selectivity:
Lookup: Provide measured R3 Selectivity value, entry: HSDAVFTDNYTRLRKQMAAKKYLNSIKNCR [R3P134]
Found: 100

Lookup: Return value of R3 Selectivity for input HSDAVFTDNYTRLRKQMAAKKYLNSIKNFR [R3P137] , no commentary.
Found: 100

Lookup: Quick one: give measured R3 Selectivity for HSDAVFTDNYTRLRKQMAIKKYLNSIKNKR [R3P102]
Found: 5

Lookup: State its R3 Selectivity: HSDAVFTDNYTRLRKQVAVKKYLQSILKKRY [R3P87]
Found: 3

Lookup: Supply reported R3 Selectivity belonging to this binder: HSDGIFTESYSRYRKQMAVKKYLAALKKKRYKQRVKNK [R3P6]
Found: 3

Lookup: Return R3 Selectivity for the following binder: HSDAVFTDNYTRLRKQMAAKKYLNSIKNPR [R3P144]
Found: 100

Lookup: Respond only with R3 Selectivity recorded for HSDAVFTDNYTRLRKQMAAKKYLNSIPNKR [R3P125]
Found: 30

Lookup: Specify reported R3 Selectivity for the binder shown: HSDAVFTENYTKLRKQLAAKKYLNDLKKGGTSWCEPGWCR [R3P19]
Found: 30

// input: 2 binders below; output: R3 Selectivity for each
1. HSDAVFTDNYTRLRKQMAAKKYLNSISNKR [R3P128]
2. HSDAVFTDNYTRLRKQMAAKKYLNSIKNWR [R3P150]

Found:
[200, 50]
